Please go through the items and note down their Ki.
# TGT: rat 5-HT7a receptor (Rattus norvegicus, UniProt P32305)
# Sequence (P32305 whole entry): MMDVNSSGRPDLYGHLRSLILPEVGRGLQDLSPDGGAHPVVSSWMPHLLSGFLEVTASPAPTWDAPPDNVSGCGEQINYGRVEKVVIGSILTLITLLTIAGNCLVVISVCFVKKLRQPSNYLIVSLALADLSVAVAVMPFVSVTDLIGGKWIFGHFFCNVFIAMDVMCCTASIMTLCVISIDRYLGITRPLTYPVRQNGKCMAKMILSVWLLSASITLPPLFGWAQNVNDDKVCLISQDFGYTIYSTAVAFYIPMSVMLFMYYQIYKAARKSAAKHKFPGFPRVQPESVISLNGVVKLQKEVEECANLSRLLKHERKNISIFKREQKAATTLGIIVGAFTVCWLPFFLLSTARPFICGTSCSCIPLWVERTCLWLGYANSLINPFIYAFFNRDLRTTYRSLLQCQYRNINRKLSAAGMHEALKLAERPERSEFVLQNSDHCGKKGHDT
Where a name gives a salt, the structure may show the parent alone.

Query :: # value lookup — system rat 5-HT7a receptor (Rattus norvegicus, UniProt P32305), readout Ki, item Fc1ccc(-c2nc(Cc3ccccc3)nc3c2CNCC3)cc1F [Example 10]
Result :: > 10000 nM

Query :: Kindly state the measured Ki obtained for Fc1ccc(-c2nc(C3CCC3)nc3c2CNCC3)cc1 [Example 5, hydrochloride] with rat 5-HT7a receptor (Rattus norvegicus, UniProt P32305).
Result :: > 10000 nM

Query :: Query Ki on rat 5-HT7a receptor (Rattus norvegicus, UniProt P32305) for CC(C)Cc1nc2c(c(-c3ccc(F)cc3)n1)CNCC2 [Example 37]
Result :: > 10000 nM

Query :: Requested read-out Ki, target or system rat 5-HT7a receptor (Rattus norvegicus, UniProt P32305), entry CC(C)c1nc(-c2ccc(F)cc2)c2c(n1)C(C)CNC2 (stereo not shown) [Example 100, hydrochloride]
Result :: > 10000 nM

Query :: rat 5-HT7a receptor (Rattus norvegicus, UniProt P32305) / Ki / CC(C)Cc1nc2c(c(-c3cccs3)n1)CNCC2 [Example 35] : value?
Result :: 500 nM

Query :: Item Cc1cc(-c2nc(C(C)C)nc3c2CCN(C)C3)cs1 [Example 90, hydrochloride] with rat 5-HT7a receptor (Rattus norvegicus, UniProt P32305) - Ki?
Result :: 2300 nM

Query :: What is its Ki for rat 5-HT7a receptor (Rattus norvegicus, UniProt P32305)? Entry: Cc1ccc(-c2nc(Cc3ccccc3)nc3c2CNCC3)cc1 [Example 8]
Result :: 1000 nM

Query :: What value of Ki on rat 5-HT7a receptor (Rattus norvegicus, UniProt P32305) does CNCc1cc(-c2ccc(F)cc2)nc(C(C)C)n1 [Example 114] have?
Result :: > 10000 nM

Query :: // fetch rat 5-HT7a receptor (Rattus norvegicus, UniProt P32305) Ki for COc1ccc(-c2nc(C(C)C)nc3c2CNCC3)cc1 [Example 30]
Result :: > 10000 nM

Query :: # get_value(readout= Ki, system= rat 5-HT7a receptor (Rattus norvegicus, UniProt P32305)) for c1ccc(Cc2nc3c(c(-c4ccccc4)n2)CCNC3)cc1 [Example 78]
Result :: 400 nM

Query :: API: value(readout=Ki, system=rat 5-HT7a receptor (Rattus norvegicus, UniProt P32305)) for record Cc1ccc(-c2nc(C(C)C)nc3c2CNCC3)cc1 [Example 28]
Result :: > 10000 nM

Query :: Recorded Ki for CC(C)c1nc(-c2ccc(C(F)(F)F)cc2)c2c(n1)C(C)CN(Cc1ccccc1)C2 (stereo not shown) [Example 96] with rat 5-HT7a receptor (Rattus norvegicus, UniProt P32305), please?
Result :: > 10000 nM

Query :: Give rat 5-HT7a receptor (Rattus norvegicus, UniProt P32305) Ki for Cc1ccc(-c2cc(CN3CCN(C)CC3)nc(Cc3ccccc3)n2)cc1 [Example 113]
Result :: > 10000 nM

Query :: Request body: readout Ki, system rat 5-HT7a receptor (Rattus norvegicus, UniProt P32305), query Cc1ccc(-c2nc(Cc3ccccc3)nc3c2CCNCC3)cc1 [Example 55] . Return the value.
Result :: 35 nM

Query :: Query Ki on rat 5-HT7a receptor (Rattus norvegicus, UniProt P32305) for CC(C)c1nc2c(c(-c3ccc(Cl)c(Cl)c3)n1)CNCC2 [Example 23, hydrochloride]
Result :: > 10000 nM

Query :: Param readout= Ki; system= rat 5-HT7a receptor (Rattus norvegicus, UniProt P32305); entry= CC(C)c1nc2c(c(-c3ccccc3)n1)CCN(Cc1ccccc1)C2 [Example 75] ; returns value.
Result :: 5000 nM

Query :: Record FC(F)(F)c1ccc(-c2nc(Cc3ccccc3)nc3c2CCNCC3)cc1 [Example 56] : what is its Ki with rat 5-HT7a receptor (Rattus norvegicus, UniProt P32305)?
Result :: 180 nM

Query :: Find Ki (rat 5-HT7a receptor (Rattus norvegicus, UniProt P32305)) for the entry CC(C)c1nc2c(c(-c3ccccc3)n1)CCNC2 [Example 81]
Result :: > 10000 nM

Query :: Lab note: need Ki with rat 5-HT7a receptor (Rattus norvegicus, UniProt P32305) for entry Fc1ccc(Cc2nc3c(c(-c4ccc(F)cc4)n2)CCNCC3)cc1 [Example 57] , please look it up.
Result :: 550 nM

----------
# TGT: 5-HT2B receptor (Homo sapiens)
# Sequence (P41595 whole entry): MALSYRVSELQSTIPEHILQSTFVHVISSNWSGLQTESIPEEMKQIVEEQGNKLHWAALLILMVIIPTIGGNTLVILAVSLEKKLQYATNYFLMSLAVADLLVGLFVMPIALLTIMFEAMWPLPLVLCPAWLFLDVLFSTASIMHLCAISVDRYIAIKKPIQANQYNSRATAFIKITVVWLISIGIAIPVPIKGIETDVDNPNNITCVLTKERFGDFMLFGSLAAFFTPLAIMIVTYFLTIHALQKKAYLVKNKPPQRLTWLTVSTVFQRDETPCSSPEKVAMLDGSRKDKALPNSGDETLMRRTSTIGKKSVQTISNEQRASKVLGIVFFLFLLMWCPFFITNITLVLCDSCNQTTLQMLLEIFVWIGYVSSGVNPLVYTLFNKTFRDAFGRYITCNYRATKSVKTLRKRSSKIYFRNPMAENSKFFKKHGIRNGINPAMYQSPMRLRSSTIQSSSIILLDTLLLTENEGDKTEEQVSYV
Where a name gives a salt, the structure may show the parent alone.
Field: label. Allowed values: rule met (Ki < 300 nM) or rule not met (Ki >= 300 nM).

Query :: In the record for `CC(C)c1nc2c(c(-c3ccccc3F)n1)CNCC2` , is Ki less than 300 nM?
Result :: rule not met

Query :: Threshold test, Ki < 300 nM: CC(C)c1nc(-c2ccc(-c3ccc(Cl)cc3)cc2)c2c(n1)C(C)CN(Cc1ccccc1)C2 (stereo not shown)
Result :: rule not met

Query :: Does this compound meet the criterion Ki < 300 nM? CCC(C)c1nc2c(c(-c3ccc(OC(F)(F)F)cc3)n1)CNCC2 (stereo not shown)
Result :: rule not met

Query :: Regarding `CNCCc1cc(-c2ccc(F)cc2)nc(C(C)(C)C)n1` , kindly confirm whether its Ki is beneath 300 nM.
Result :: rule met

Query :: Is it true that Ki reported for `Cc1ccc(-c2cc(CN3CCN(C)CC3)nc(Cc3ccccc3)n2)cc1` is less than 300 nM?
Result :: rule not met

Query :: # check: Ki < 300 nM for CC(C)c1nc(-c2ccc(Cl)cc2)c2c(n1)C(C)CN(Cc1ccccc1)C2 (stereo not shown)
Result :: rule not met

Query :: Hello, I'm reviewing records and need to know if Ki of CNC1CCc2nc(C(C)C)nc(-c3ccc(F)cc3)c2C1 (stereo not shown) [Example 109, hydrochloride] is below 300 nM. Could you check?
Result :: rule not met

Query :: Bench note: check whether `Fc1ccc(-c2nc(C3CCCC3)nc3c2CNCC3)cc1` shows Ki below 300 nM
Result :: rule met

Query :: Is Ki strictly under 300 nM for the entry `CC(C)(C)c1nc2c(c(-c3ccc(F)cc3)n1)CNCC2` ?
Result :: rule met

Query :: Does CCC(C)c1nc2c(c(-c3ccccc3F)n1)CNCC2 (stereo not shown) [Example 42, hydrochloride] have Ki strictly under 300 nM?
Result :: rule not met

Query :: Record CN1CCc2c(nc(Cc3ccccc3)nc2-c2ccc(F)cc2)C1 [Example 82, hydrochloride] : is its Ki strictly below 300 nM?
Result :: rule not met

Query :: API: query returns whether the compound falls strictly under 300 nM in Ki. Query: Cc1ccc(-c2nc(C(C)C)nc3c2CN(Cc2ccccc2)CC3C)cc1 (stereo not shown)
Result :: rule not met

Query :: is_below(Ki, 300 nM) for `CC(C)c1nc2c(c(-c3ccc(F)cc3)n1)CCN(Cc1ccccc1)C2` ?
Result :: rule not met

Query :: Strictly below 300 nM in Ki? `CC(C)c1nc2c(c(-c3ccccc3)n1)CCCNC2`
Result :: rule not met

Query :: Strictly below 300 nM in Ki? `N#Cc1ccc(-c2nc(C3CCCC3)nc3c2CNCC3)cc1`
Result :: rule not met

Query :: Item CC(C)c1nc(-c2ccc(C(F)(F)F)cc2)c2c(n1)C(C)CN(Cc1ccccc1)C2 (stereo not shown) : Ki beneath 300 nM, strictly?
Result :: rule not met

Query :: Please determine if `CC(C)c1nc2c(c(-c3ccccc3)n1)CCNC2` is below 300 nM in terms of Ki.
Result :: rule not met

Query :: Does the reported Ki of `Fc1ccc(-c2nc(C3CCCC3)nc3c2CCNCC3)cc1` stay below 300 nM?
Result :: rule met

Query :: is_below(Ki, 300 nM) for `CN1CCc2nc(C3CCCC3)nc(-c3ccc(F)cc3)c2CC1` ?
Result :: rule met

Query :: Please indicate whether the reported Ki of CC(C)c1nc(-c2ccc(F)c(Cl)c2)c2c(n1)C(C)CN(Cc1ccccc1)C2 (stereo not shown) is strictly below 300 nM.
Result :: rule not met

Query :: Check if Ki falls below 300 nM for `Cc1ccc(-c2nc(C3CCCC3)nc3c2CCNCC3)cc1` .
Result :: rule met

Query :: Check if Ki falls below 300 nM for CC(C)c1nc(-c2ccccc2)c2c(n1)C(C)CNC2 (stereo not shown) .
Result :: rule not met

Query :: Consider `Cc1cc(-c2nc(CC(C)C)nc3c2CNCC3)ccc1F` . Does its Ki lie strictly below 300 nM?
Result :: rule not met

Query :: Threshold test, Ki < 300 nM: CC(C)c1nc(-c2ccccc2)c2c(n1)C(C)CN(Cc1ccccc1)C2 (stereo not shown)
Result :: rule not met

Query :: Lab note: confirm whether the reported Ki for this compound is below 300 nM, equality not counting. compound: `Cc1ccc(-c2cc(CN(C)C)nc(Cc3ccccc3)n2)cc1`
Result :: rule not met

Query :: API: query returns whether the compound falls strictly under 300 nM in Ki. Query: CC(C)c1nc2c(c(-c3ccsc3)n1)CCN(Cc1ccccc1)C2 [Example 87, hydrochloride]
Result :: rule not met

Query :: Quick check: Ki of CC(C)c1nc2c(c(-c3ccc(F)c(F)c3)n1)CNCC2 [Example 24, hydrochloride] under 300 nM?
Result :: rule not met

Query :: Given the entry `Fc1ccc(-c2nc(Cc3ccccc3)nc3c2CNCC3)cc1` , would its reported Ki be below 300 nM?
Result :: rule not met

Query :: For this compound, is Ki lower than 300 nM? `CC(C)Cc1nc2c(c(-c3ccncc3)n1)CNCC2`
Result :: rule not met

Query :: Report whether reported Ki is lower than 300 nM (strictly) for `Cc1nc2c(c(-c3cccc(Cl)c3)n1)CCNCC2`
Result :: rule not met
